Where a name gives a salt, the structure may show the parent alone.
Parameter 'readout' = pKi; parameter 'system' = human factor Xa (Homo sapiens).
Sequence (P00742 235-488 limits assumed): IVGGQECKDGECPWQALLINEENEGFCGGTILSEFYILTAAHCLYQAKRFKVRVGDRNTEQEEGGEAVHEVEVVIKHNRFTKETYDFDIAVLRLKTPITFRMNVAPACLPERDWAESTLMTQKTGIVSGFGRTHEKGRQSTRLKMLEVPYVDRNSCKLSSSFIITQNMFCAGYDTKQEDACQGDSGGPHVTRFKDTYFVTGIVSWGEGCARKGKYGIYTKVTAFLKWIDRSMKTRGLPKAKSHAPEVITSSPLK
Sequence (P00742 41-179 partner limits assumed): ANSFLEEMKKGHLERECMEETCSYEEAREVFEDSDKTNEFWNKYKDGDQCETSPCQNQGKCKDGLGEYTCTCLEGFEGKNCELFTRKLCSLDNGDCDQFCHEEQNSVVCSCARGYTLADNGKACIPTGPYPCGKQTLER
Numbers only, as −log10 of the molar value.

Record pKi for all entries; do not skip any.
1. N=C(N)c1ccc(C(=O)N2CCc3c(n(Cc4cccc(C(=N)N)c4)c4ccccc34)C2)cc1 [Example 84, trifluoroacetic acid salt]
2. C[N+](C)(C)c1ccc(CNC(=O)c2c(Cl)c3ccccc3n2Cc2cccc(C(=N)N)c2)cc1
3. N=C(N)c1ccc(CNC(=O)c2cc3c(O)cccc3n2Cc2cccc(C(=N)N)c2)cc1.O=C(O)C(F)(F)F.O=C(O)C(F)(F)F [Example 78, trifluoroacetic acid salt]

(A)
1: 6.05; 2: 7.40; 3: 6.68
